Documented (% Activity NADPH T0)/(% Activity NADPH T30) across a set of molecules
Target: CYP3A4 (Homo sapiens)
Construct: Pooled human microsomes and selective CYP probe substrates were used; from tissue; host or cells: pooled human liver microsomes
Assay: Time-dependent inhibition of CYP3A4 in human liver microsomes (testosterone and midazolam probes)
Type: in vitro ADME
Conditions: CYP3A4-T (testosterone probe substrate), 25 μM, fold change
RECORDED ENDPOINT: (% Activity NADPH T0)/(% Activity NADPH T30)

{"MOLECULE": "C[C@H]1CC[C@H](N2CC(=O)N(Cc3ccc(Cl)cc3)C3(CN(C(N)=O)C3)C2=O)CC1 [Compound 18]", "MEASUREMENT": 1.2}
{"MOLECULE": "CC(C)N1CC(=O)N(Cc2ccc(Cl)c(F)c2)C2(CN(c3cccnn3)C2)C1=O [Compound 8]", "MEASUREMENT": 1.0}
{"MOLECULE": "C[C@H]1CC[C@H](N2CC(=O)N(Cc3ccc(F)c(Cl)c3)C3(CN(C(N)=O)C3)C2=O)CC1 [Compound 7]", "MEASUREMENT": 1.0}
{"MOLECULE": "O=C1[C@H](C2COC2)N(Cc2ccc(C(F)(F)F)cc2)C(=O)CN1c1ncc(Cl)cc1F [Comparator C, reference compound]", "MEASUREMENT": 1.8}
{"MOLECULE": "Cc1cc(CN2C(=O)CN([C@H]3CC[C@H](C)CC3)C(=O)C23CN(C(N)=O)C3)ccc1F [Compound 6]", "MEASUREMENT": 1.3}
{"MOLECULE": "CC(C)N1CC(=O)N(Cc2ccc(C(F)(F)F)cc2)C2(CN(c3cccnn3)C2)C1=O [Compound 13]", "MEASUREMENT": 1.0}
{"MOLECULE": "C[C@H]1CC[C@H](N2CC(=O)N(Cc3ccc(F)c(F)c3)C3(CN(C(N)=O)C3)C2=O)CC1 [Compound 5]", "MEASUREMENT": 1.1}
{"MOLECULE": "C[C@H]1CC[C@H](N2CC(=O)N(Cc3ccc(F)c(F)c3)C3(CN(C=O)C3)C2=O)CC1 [Compound 4]", "MEASUREMENT": 0.9}

* * *

Documented activity at 30 min, 50 µM across a set of compounds
Molecular target: CYP3A4 (Homo sapiens, UniProt P08684)
Construct: Pooled human microsomes and selective CYP probe substrates were used; from tissue; host or cells: pooled human liver microsomes
Sequence (P08684 whole entry): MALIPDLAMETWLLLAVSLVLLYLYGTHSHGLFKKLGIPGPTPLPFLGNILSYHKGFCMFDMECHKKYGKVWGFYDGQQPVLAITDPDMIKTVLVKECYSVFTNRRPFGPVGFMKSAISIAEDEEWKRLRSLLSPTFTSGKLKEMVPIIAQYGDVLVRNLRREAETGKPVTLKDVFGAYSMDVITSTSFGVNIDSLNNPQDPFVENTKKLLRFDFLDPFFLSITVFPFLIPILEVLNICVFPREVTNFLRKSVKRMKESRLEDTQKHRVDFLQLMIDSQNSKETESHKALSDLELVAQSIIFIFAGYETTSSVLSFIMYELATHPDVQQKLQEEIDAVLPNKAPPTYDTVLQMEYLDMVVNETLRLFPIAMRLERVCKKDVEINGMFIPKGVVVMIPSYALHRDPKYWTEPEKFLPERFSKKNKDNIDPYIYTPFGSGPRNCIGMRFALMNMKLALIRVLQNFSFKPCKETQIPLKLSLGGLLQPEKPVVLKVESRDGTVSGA
Test: Time-dependent inhibition of CYP3A4 in human liver microsomes (testosterone and midazolam probes)
Format: in vitro ADME
Details: human, pooled human liver microsomes; CYP3A4-M (midazolam probe substrate), 50 μM, after 30 minutes incubation; read-out: % Activity NADPH T30
Description: An assessment of the time-dependent Inhibitory Potential of the test compounds against Principal Human Cytochrome P450 Isozymes using Human Liver Microsomes was also carried out using standard methods (Grimm et al, Drug Metab. Dispos., July; 37(7):1355-70. doi: 10.1124/dmd.109.026716, 2009). […] LC-MS/MS was used to quantify metabolite formation. […]

{"COMPOUND": "CC(C)N1CC(=O)N(Cc2ccc(C(F)(F)F)cc2)C2(CN(c3cccnn3)C2)C1=O [Compound 13]", "activity at 30 min, 50 µM (%)": 97}
{"COMPOUND": "CC(C)N1CC(=O)N(Cc2ccc(Cl)c(F)c2)C2(CN(c3cccnn3)C2)C1=O [Compound 8]", "activity at 30 min, 50 µM (%)": 100}
{"COMPOUND": "C[C@H]1CC[C@H](N2CC(=O)N(Cc3ccc(Cl)cc3)C3(CN(C(N)=O)C3)C2=O)CC1 [Compound 18]", "activity at 30 min, 50 µM (%)": 102}
{"COMPOUND": "C[C@H]1CC[C@H](N2CC(=O)N(Cc3ccc(F)c(Cl)c3)C3(CN(C(N)=O)C3)C2=O)CC1 [Compound 7]", "activity at 30 min, 50 µM (%)": 100}
{"COMPOUND": "Cc1cc(CN2C(=O)CN([C@H]3CC[C@H](C)CC3)C(=O)C23CN(C(N)=O)C3)ccc1F [Compound 6]", "activity at 30 min, 50 µM (%)": 86}
{"COMPOUND": "C[C@H]1CC[C@H](N2CC(=O)N(Cc3ccc(F)c(F)c3)C3(CN(C(N)=O)C3)C2=O)CC1 [Compound 5]", "activity at 30 min, 50 µM (%)": 35}
